assay: DMPK of D88 in mice (plasma); type: in vivo, mouse; conditions: male, CD-1, mouse; 1 mg/kg IV, plasma; read-out: half-life (T ½) (converted)

| compound | half-life, min |
| --- | --- |
| N#Cc1ccc(NC(=O)C(F)C(=O)Nc2ccc(Oc3ccccc3)cc2)cc1 (stereo not shown) [D88] | 16.2 |

----------
tested on: 16 MDR P. aeruginosa clinical isolates; assay: Pyocyanin production in MDR clinical isolates; conditions: Pseudomonas aeruginosa, 18 h, read-out: Pyocyanin production relative to Control, clinical isolate LGR-4325; Control about 100; replicates
recorded_endpoint: activity at 10 µM (%)

| compound | quantitative_readout |
| --- | --- |
| N#Cc1ccc(NC(=O)C(F)C(=O)Nc2ccc(Oc3ccccc3)cc2)cc1 (stereo not shown) | 17.1 |
| N#Cc1ccc(NC(=O)CC(=O)Nc2ccc(Br)cc2)cc1 | 15.2 |
| N#Cc1ccc(NC(=O)CC(=O)Nc2ccc(C#N)cc2)cc1 | 14.5 |
| N#Cc1ccc(NC(=O)CC(=O)Nc2ccc(C(F)(F)F)cc2)cc1 | 6.19 |
| O=C(Nc1ccc(Oc2ccccc2)cc1)C(F)C(=O)Nc1ccc(C(F)(F)F)cc1 (stereo not shown) | 13.3 |
| CC(C(=O)Nc1ccc(C#N)cc1)C(=O)Nc1ccc(C#N)cc1 | 40 |
| N#Cc1ccc(NC(=O)CC(=O)Nc2ccc(Oc3ccccc3)cc2)cc1 | 11 |
| N#Cc1ccc(NC(=O)CC(=O)Nc2ccc(C#N)c(Cl)c2)cc1 | 11.5 |
| N#Cc1ccc(NC(=O)CC(=O)Nc2ccc(Cl)cc2)cc1 | 15.5 |
| N#Cc1ccc(NC(=O)CC(=O)Nc2ccc(C#N)nc2)cc1 | 15 |

----------
tested on: pyocyanin production in PA14; assay: Pyocyanin production assay; conditions: Pseudomonas aeruginosa, PA14, read-out: IC50 pyocyanin production
A collection of compounds and their measured IC50

| chemical_structure | IC50 [nM] |
| --- | --- |
| CC(C(=O)Nc1ccc(C#N)cc1)C(=O)Nc1ccc(C#N)cc1 | 3600 |
| N#Cc1ccc(NC(=O)CC(=O)Nc2ccc(C(F)(F)F)cc2)cc1 | 960 |
| N#Cc1ccc(NC(=O)CC(=O)Nc2ccc(Br)cc2)cc1 | 1340 |
| N#Cc1ccc(NC(=O)CC(=O)Nc2ccc(C#N)nc2)cc1 | 4070 |
| N#Cc1ccc(NC(=O)CC(=O)Nc2ccc(Cl)cc2)cc1 | 1800 |

----------
A collection of compounds and their measured Response Unit (RU)
molecular target: MvfR protein (MvfRC87) (Pseudomonas aeruginosa); construct: The MvfRC87 protein purified as in Xiao et. al., 2006; made in house; assay type: binding; conditions: SPR; Concentration 3.16E-06 M
Sequence (Q9I4X0 87-332): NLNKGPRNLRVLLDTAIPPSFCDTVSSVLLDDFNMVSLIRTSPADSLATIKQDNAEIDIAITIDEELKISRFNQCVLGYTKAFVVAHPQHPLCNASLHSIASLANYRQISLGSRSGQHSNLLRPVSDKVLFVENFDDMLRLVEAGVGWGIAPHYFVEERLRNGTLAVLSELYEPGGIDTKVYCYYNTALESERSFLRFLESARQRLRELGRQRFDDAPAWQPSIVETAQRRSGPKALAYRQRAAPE

| chemical_structure | Response Unit (RU) |
| --- | --- |
| N#Cc1ccc(NC(=O)CC(=O)Nc2ccc(Cl)cc2)cc1 | 26.5 |
| N#Cc1ccc(NC(=O)CC(=O)Nc2ccc(C#N)nc2)cc1 | 26.6 |
| N#Cc1ccc(NC(=O)CC(=O)Nc2cccc(Cl)c2)cc1 | 26.8 |
| N#Cc1ccc(NC(=O)CC(=O)Nc2ccc(Oc3ccccc3)cc2)cc1 | 26.4 |
| N#Cc1ccc(NC(=O)CC(=O)Nc2ccc(Br)cc2)cc1 | 27.4 |

----------
system: MvfR-regulated small molecules in PA14; test: Production of HAQs, 2-AA, DHQ and AA in PA14 cultures (LC-MS); settings: Pseudomonas aeruginosa, PA14, read-out: % Production PQS
Criterion: activity at 50 µM meeting or surpassing 20%. Met: Satisfied. Not met: Not satisfied.

| molecule | target_or_system | assigned_class |
| --- | --- | --- |
| N#Cc1ccc(NC(=O)C(F)C(=O)Nc2ccc(Oc3ccccc3)cc2)cc1 (centres unmarked) | MvfR-regulated small molecules in PA14 | Not satisfied |
| N#Cc1ccc(NC(=O)CC(=O)Nc2ccc(C#N)c(Cl)c2)cc1 | MvfR-regulated small molecules in PA14 | Not satisfied |
| N#Cc1ccc(NC(=O)CC(=O)Nc2ccc(C#N)cc2)cc1 | MvfR-regulated small molecules in PA14 | Satisfied |
| N#Cc1ccc(NC(=O)CC(=O)Nc2ccc(C#N)nc2)cc1 | MvfR-regulated small molecules in PA14 | Satisfied |
| N#Cc1ccc(NC(=O)CC(=O)Nc2ccc(Oc3ccccc3)cc2)cc1 | MvfR-regulated small molecules in PA14 | Satisfied |
| N#Cc1ccc(NC(=O)CC(=O)Nc2ccc(Cl)cc2)cc1 | MvfR-regulated small molecules in PA14 | Not satisfied |
| N#Cc1ccc(NC(=O)CC(=O)Nc2ccc(C(F)(F)F)cc2)cc1 | MvfR-regulated small molecules in PA14 | Not satisfied |

----------
test: Solubility in iPBS pH 7.4 by HPLC; type: physicochemical; conditions: isotonic phosphate buffer (iPBS), aqueous with cosolvent or surfactant or cyclodextrin, kinetic from dmso stock; iPBS pH 7.4, HPLC; read-out: Solubility (M) in PBS
recorded_endpoint: solubility at 4 h (M)

| chemical_structure | recorded_endpoint | output_unit | quantitative_readout |
| --- | --- | --- | --- |
| N#Cc1ccc(NC(=O)CC(=O)Nc2ccc(Oc3ccccc3)cc2)cc1 | solubility at 4 h | M | 7e-06 |
| N#Cc1ccc(NC(=O)CC(=O)Nc2ccc(C#N)nc2)cc1 | solubility at 4 h | M | 3.9e-05 |
| N#Cc1ccc(NC(=O)CC(=O)Nc2ccc(Br)cc2)cc1 | solubility at 4 h | M | 1.5e-05 |
| CC(C(=O)Nc1ccc(C#N)cc1)C(=O)Nc1ccc(C#N)cc1 | solubility at 4 h | M | 2.9e-05 |
| N#Cc1ccc(NC(=O)CC(=O)Nc2ccc(C(F)(F)F)cc2)cc1 | solubility at 4 h | M | 2.1e-05 |

----------
test system: 16 MDR P. aeruginosa clinical isolates; assay: Pyocyanin production in MDR clinical isolates; conditions: Pseudomonas aeruginosa, 18 h, read-out: Pyocyanin production relative to Control, clinical isolate LGR-4327; Control about 100; replicates
A collection of molecules and their measured activity at 10 µM

| chemical_structure | activity at 10 µM |
| --- | --- |
| N#Cc1ccc(NC(=O)CC(=O)Nc2ccc(Oc3ccccc3)cc2)cc1 | 18.2% |
| N#Cc1ccc(NC(=O)CC(=O)Nc2ccc(C#N)cc2)cc1 | 26.2% |
| N#Cc1ccc(NC(=O)CC(=O)Nc2ccc(C#N)nc2)cc1 | 20.6% |
| CC(C(=O)Nc1ccc(C#N)cc1)C(=O)Nc1ccc(C#N)cc1 | 32.3% |

----------
molecular target: MvfR protein (MvfRC87) (Pseudomonas aeruginosa); construct: The MvfRC87 protein purified as in Xiao et. al., 2006; made in house; assay type: binding; details: SPR; Concentration 3.16E-07 M

| molecule | output_unit | Response Unit (RU) |
| --- | --- | --- |
| N#Cc1ccc(NC(=O)CC(=O)Nc2ccc(C(F)(F)F)cc2)cc1 | RU | 15.6 |
| CC(C(=O)Nc1ccc(C#N)cc1)C(=O)Nc1ccc(C#N)cc1 | RU | 13.9 |
| N#Cc1ccc(NC(=O)CC(=O)Nc2ccc(C#N)nc2)cc1 | RU | 11.8 |
| N#Cc1ccc(NC(=O)CC(=O)Nc2ccc(Oc3ccccc3)cc2)cc1 | RU | 10.4 |
| N#Cc1ccc(NC(=O)CC(=O)Nc2ccc(C#N)cc2)cc1 | RU | 16.5 |
| N#Cc1ccc(NC(=O)C(F)C(=O)Nc2ccc(Oc3ccccc3)cc2)cc1 (stereo not drawn) | RU | 10.5 |
| N#Cc1ccc(NC(=O)CC(=O)Nc2ccc(Cl)cc2)cc1 | RU | 16.9 |
| Cc1cc(F)ccc1NCC(=O)Nc1ccc(C#N)cc1 | RU | 3 |
| N#Cc1ccc(NC(=O)CC(=O)Nc2cccc(Cl)c2)cc1 | RU | 11.4 |

----------
A collection of compounds and their measured % Production PQS
test system: MvfR-regulated small molecules in PA14; test: Production of HAQs, 2-AA, DHQ and AA in PA14 cultures (LC-MS); conditions: PA14, 50µM inhibitor
recorded_endpoint: % Production PQS (%)

| chemical_structure | quantitative_readout |
| --- | --- |
| N#Cc1ccc(NC(=O)CC(=O)Nc2ccc(Oc3ccccc3)cc2)c(N)c1 | 9 |
| Cc1cc(F)ccc1NCC(=O)Nc1ccc(F)cc1 | 88 |
| O=C(CC(=O)Nc1ccc(Oc2ccccc2)cc1)Nc1ccc(I)cc1 | 93 |
| O=C(CC(=O)Nc1ccc(Oc2ccccc2)cc1)Nc1ccc(Cl)cc1 | 106 |
| Cc1cc(F)ccc1NCC(=O)Nc1ccc(C(F)(F)F)cc1 | 93 |
| N#Cc1ccc(NC(=O)CC(=O)Nc2ccc(Oc3ccccc3)cc2)c(O)c1 | 4 |
| CC(=O)c1ccc(NC(=O)CC(=O)Nc2ccc(C#N)cc2)cc1 | 119 |
| N#Cc1ccc(NC(=O)CC(=O)Nc2ccc([N+](=O)[O-])cc2)cc1 | 6 |
| N#Cc1ccc(NC(=O)CNc2ccc(F)cc2)cc1 | 124 |
| N#Cc1ccc(NC(=O)CC(=O)Nc2ccc(NC(=O)C(F)(F)F)cc2)cc1 | 101 |
| O=C(CC(=O)Nc1ccc(Oc2ccccc2)cc1)Nc1ccc(F)cc1 | 137 |
| Cc1cc(F)ccc1NC(=O)Cc1ccc(C#N)cc1 | 100 |
| Cc1cc(F)ccc1NCC(=O)Nc1ccccc1C#N | 122 |
